The values you see were collected from PubChem BioAssay AID1259415.

We begin with a simple list: items and their reported activity change, negative = inhibition.
test-protocol: qHTS Assay for inhibitors of the human cytomegalovirus (HCMV); note: % is set by controls: 0 for no effect and ±100 for the full control effect
measurement-parameters: HFF cells, HCMV-luciferase reporter, 72 h; at 57.5 µM; stronger effect = lower value
Hit rate of the full screen: of about 410,000 compounds, about 18,000 (4.4%) were called active. Inconclusive results (about 7%) are left out. This excerpt belongs to a sample that is enriched for actives.
Give just the numeric value; % need not be written.

Below, each entry is followed by its recorded activity change, negative = inhibition result.
>  <compound>
CCOc1ccccc1NC(=O)C1CCCN(S(=O)(=O)c2ccccc2)C1 (stereo unspecified)

>  <activity change, negative = inhibition, %>
-62

$$$$
>  <compound>
COc1cc(Nc2nc(-c3ccc(OC)c(OC)c3)nc3ccccc23)cc(OC)c1

>  <activity change, negative = inhibition, %>
-33.1

$$$$
>  <compound>
CSc1nn(Cc2cccc(C)c2)c(N)c1S(=O)(=O)c1ccccc1

>  <activity change, negative = inhibition, %>
-39.1

$$$$

# get_value(readout='activity change, negative = inhibition', item= CCOc1ccccc1NC(=O)COc1ccc(S(=O)(=O)N2CCCC2)cc1 )
-21

Would you kindly repeat that for Cc1cccc(NC(=O)N2CCC(CN3CCc4ccccc4C3)CC2)c1C ?
7.59

Would you kindly repeat that for Cc1cc(S(=O)(=O)N2CCOCC2)ccc1OCC(=O)Nc1cccc(C(F)(F)F)c1 ?
-13.9

Would you kindly repeat that for Cc1c(CNC2CCCCC2)c(C(=O)O)c(C)n1Cc1cccc(Cl)c1 ?
-85.4

Would you kindly repeat that for COc1ccc(C(=O)/C=C/c2cccnc2)c(OC)c1 ?
-71.6
